Listed next: entries and their corresponding MRT inf.
Assay Comment: Half-lives and pharmacokinetic parameters of polypeptides vs HM-1
Measurement Setup: in vivo
Peptide text beside a SMILES is read from it. * marks the point of attachment. X7 = O=C1C=CC(=O)N1CCOCCOCCOCCOCCOCCOCCCCCCC(=O)*; X40 = O=C1C=CC(=O)N1c1ccc(CCCCCCCCC(=O)*)cc1; X16 = O=C1C=CC(=O)N1CCOCCOCCCCCCC(=O)*

- Molecule: "C[C@H](NC(=O)CNC(=O)[C@H](CCCNC(=N)N)NC(=O)CCCCCCOCCOCCOCCOCCOCCOCCN1C(=O)C=CC1=O)C(=O)N[C@@H](CC(=O)O)C(=O)N[C@@H](CCCNC(=N)N)C(=O)N[C@@H](C)C(=O)NCC(=O)NCC(=O)NCC(=O)NCC(=O)N[C@@H](CCCNC(=N)N)C(=O)NCC(=O)N[C@@H](CC(=O)O)C(=O)O [X89] (X7-RGADRAGGGGRGD-OH)"
  Result Unit: "h"
  MRT inf: 59.1
- Molecule: "C[C@H](NC(=O)CNC(=O)[C@H](CCCNC(=N)N)NC(=O)CCCCCCOCCOCCN1C(=O)C=CC1=O)C(=O)N[C@@H](CC(=O)O)C(=O)N[C@@H](CCCNC(=N)N)C(=O)N[C@@H](C)C(=O)NCC(=O)NCC(=O)NCC(=O)NCC(=O)N[C@@H](CCCNC(=N)N)C(=O)NCC(=O)N[C@@H](CC(=O)O)C(=O)O [X61] (X16-RGADRAGGGGRGD-OH)"
  Result Unit: "h"
  MRT inf: 45.7
- Molecule: "C[C@H](NC(=O)CNC(=O)[C@H](CCCNC(=N)N)NC(=O)CCCCCCCCc1ccc(N2C(=O)C=CC2=O)cc1)C(=O)N[C@@H](CC(=O)O)C(=O)N[C@@H](CCCNC(=N)N)C(=O)N[C@@H](C)C(=O)NCC(=O)NCC(=O)NCC(=O)NCC(=O)N[C@@H](CCCNC(=N)N)C(=O)NCC(=O)N[C@@H](CC(=O)O)C(=O)O [X44] (X40-RGADRAGGGGRGD-OH)"
  Result Unit: "h"
  MRT inf: 48
